The measurements presented in this section are drawn from patent US20220402916A1.

biological target: Biotinylated KRAS G12C protein (Homo sapiens, UniProt P01116, C118S/C51S/C80L/G12C); construct: 183 amino acids; biotin on K10; experiment: SOS-catalyzed nucleotide exchange assay; format: biochemical; conditions: apparent potency; preincubation time of 60 minutes prior to addition of SOS
Sequence (P01116 with tags, fused parts or gaps isoform P01116-2 G12C/C51S/C80L/C118S): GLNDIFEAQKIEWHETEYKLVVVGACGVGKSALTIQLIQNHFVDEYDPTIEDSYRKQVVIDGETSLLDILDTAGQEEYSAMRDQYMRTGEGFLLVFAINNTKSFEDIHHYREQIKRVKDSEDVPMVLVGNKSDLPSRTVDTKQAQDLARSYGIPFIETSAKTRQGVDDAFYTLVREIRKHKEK
assay.readout: IC50 (nM)

a. C=CC(=O)N1CCN(c2cc(C(=O)NC(CN)CN)nc3c2CCN(c2cccc4cccc(C)c24)C3)C[C@@H]1CC#N
b. C=CC(=O)N1CCN(c2cc(C(=O)NCCN(C)C)nc3c2CCN(c2cccc4ccccc24)C3)CC1
c. C=CC(=O)N1CCN(c2cc(C(=O)NC[C@]3(F)CCCNC3)nc3c2CCN(c2cccc4cccc(C)c24)C3)C[C@@H]1CC#N
Q. Can you order these entries from above by IC50? Start with the largest number and work down. In plain terms: list the labels in the order you were asked to.
A. b, c, a
